These entries and their values trace back to patent US4178442A.

Tested on: anaesthetized dog
assay.procedure: Activity on the cerebral circulation, anaesthetized dog
Format: in vivo
reported.conditions: dog, 2,5 mg/kg i.v. rapid injection
measure.name: Internal carotid artery back pressure: in time (min)

molecule="CCN(CC)CCOC(=O)C(Cc1cccc2ccccc12)CC1CCCO1 (stereo not shown) [Naphtidrofuryl, naphtidrofuryl, reference compound]" endpoint_value=5
molecule="COc1ccc(Cc2nccc3cc(OC)c(OC)cc23)cc1OC [Papaverine, papaverine, reference compound]" endpoint_value=5
molecule="COc1cc(/C=C/C(=O)N2CCN(CC(O)CN(C)c3ccccc3)CC2)cc(OC)c1OC (stereo not shown)" endpoint_value=60
molecule="COc1cc(/C=C/C(=O)N2CCN(CC(O)COc3cccc(C(C)=O)c3)CC2)cc(OC)c1OC (stereo not shown)" endpoint_value=15
